Entries and their measured ASMS ratio (%) n = 1 follow.
# target desc: Bcl-2 protein (Recombinant Human Bcl-2 Protein) (Homo sapiens)
# Construct: purchased Novus Biologicals NBP2-34889
# Sequence (P10415 whole entry): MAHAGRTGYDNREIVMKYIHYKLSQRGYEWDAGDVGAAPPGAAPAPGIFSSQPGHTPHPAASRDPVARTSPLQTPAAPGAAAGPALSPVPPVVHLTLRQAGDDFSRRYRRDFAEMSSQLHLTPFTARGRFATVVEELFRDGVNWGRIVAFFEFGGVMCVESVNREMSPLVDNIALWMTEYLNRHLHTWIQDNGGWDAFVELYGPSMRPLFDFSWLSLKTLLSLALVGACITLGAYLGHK
# assay method text: AS-MS evaluation of binding of the Example 4 mixture library (1200 compounds/well) to Bcl-2, ASMS ratio (%)
# condition context: AS-MS, Example 4 mixture library, Bcl-2, replicate n = 1
recorded endpoint: ASMS ratio (%) n = 1

>>> result("CCOc1cccc(-c2cc(CN3CCN(c4ccc(C(=O)NS(=O)(=O)c5ccc(NCCSc6ccccc6)c(C(F)(F)F)c5)nn4)CC3)cc(OCC)c2)c1")
"21.1%"
>>> result("CCOc1cncc(-c2cc(CN3CCN(c4ccc(C(=O)NS(=O)(=O)CCC(F)(F)F)cc4)CC3)cc(OC(C)C)c2)c1")
"0.0%"
>>> result("CCOc1cncc(C#Cc2ccccc2CN2CCN(c3ccc(C(=O)NS(=O)(=O)CCC(F)(F)F)cc3)CC2)c1")
"0.0%"
>>> result("CCOc1cccc(-c2ccc(CN3CCN(c4ccc(C(=O)NS(=O)(=O)c5ccc(NCCSc6ccccc6)c(C(F)(F)F)c5)cc4)CC3)c(OC)c2)c1")
"−15.0%"
>>> result("CCOc1cccc(-c2cc(CN3CCN(c4ccc(C(=O)NS(=O)(=O)CCC(F)(F)F)cc4)CC3)cc(OC(F)(F)F)c2)c1")
"−0.3%"
>>> result("CCOc1cccc(-c2cnn(-c3cc(C(=O)N4CCN(c5ccc(C(=O)NS(=O)(=O)c6ccc(NCCSc7ccccc7)c(C(F)(F)F)c6)nn5)CC4)cc(C(F)(F)F)c3)c2)c1")
"13.0%"
>>> result("CCOc1cncc(C#Cc2cc(C(=O)N3CCN(c4ccc(C(=O)NS(=O)(=O)c5ccc(NCCSc6ccccc6)c(C(F)(F)F)c5)nn4)CC3)cc(C(F)(F)F)c2)c1")
"10.8%"
>>> result("CCOc1cncc(-c2cc(OC)c(CN3CCN(c4ccc(C(=O)NS(=O)(=O)c5ccc(NCCSc6ccccc6)c(C(F)(F)F)c5)nn4)CC3)c(OC)c2)c1")
"0.0%"
>>> result("CCOc1cccc(-c2cc(CN3CCN(c4ccc(C(=O)NS(=O)(=O)c5ccc(NCCSc6ccccc6)c(C(F)(F)F)c5)nn4)CC3)cc(C(F)(F)F)c2)c1")
"3.8%"
>>> result("CCOc1cncc(C#Cc2cncc(C(=O)N3CCN(c4ccc(C(=O)NS(=O)(=O)CCC(F)(F)F)nn4)CC3)c2)c1")
"0.0%"
>>> result("CCOc1cccc(-c2ccc(C(C)N3CCN(c4ccc(C(=O)NS(=O)(=O)CCC(F)(F)F)cc4)CC3)c(F)c2)c1 (stereo not drawn)")
"0.0%"
>>> result("CCOc1cccc(-c2cc(CN3CCN(c4ccc(C(=O)NS(=O)(=O)CCC(F)(F)F)nn4)CC3)cc(OC(C)C)c2)c1")
"0.0%"
>>> result("CCOc1cncc(C#Cc2cc(C(=O)N3CCN(c4ccc(C(=O)NS(=O)(=O)CCC(F)(F)F)cc4)CC3)cc(C(F)(F)F)c2)c1")
"0.0%"
>>> result("CCOc1cccc(-c2ccc(C(=O)N3CCN(c4ccc(C(=O)NS(=O)(=O)c5ccc(NCCSc6ccccc6)c(C(F)(F)F)c5)cc4)CC3)c3ccccc23)c1")
"8.3%"
>>> result("CCOc1cccc(-c2ccc(C(C)N3CCN(c4ccc(C(=O)NS(=O)(=O)C(C)(C)C)cc4)CC3)cc2)c1 (stereo not drawn)")
"0.0%"
>>> result("CCOc1cccc(-c2cc(CN3CCN(c4ccc(C(=O)NS(=O)(=O)c5ccc(NCCSc6ccccc6)c(C(F)(F)F)c5)cc4)CC3)cc(OC(C)C)c2)c1")
"5.7%"
>>> result("CCOc1cccc(-c2cc(CN3CCN(c4ccc(C(=O)NS(=O)(=O)C(C)(C)C)nn4)CC3)cc(C(F)(F)F)c2)c1")
"1.9%"
>>> result("CCOc1cncc(-c2cc(CN3CCN(c4ccc(C(=O)NS(=O)(=O)CCC(F)(F)F)cc4)CC3)cc(C(F)(F)F)c2)c1")
"0.0%"
